experiment: chemical genetic growth profiling, strain panel (AID 1159580);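 note: tested at 20 µM; growth read once vehicle control cultures reached saturation at 30 °C; 1 = growth at the plate median or of vehicle wells; lower values mean less growth of the strain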; details: S. cerevisiae deletion strains, growth OD, locus YMR307W, strain GAS1, hits give low values
Screen size: about 5,500 compounds; about 2,000 (36%) were called active. Another 18% or so got no clear call; they are omitted. The list shows a part of the results.
property name: normalized growth
# answer = number (no unit)

Could you share which normalized growth value was measured for CNCC(O)c1ccc(O)c(O)c1 (stereo not given) ? 1

Could you share which normalized growth value was measured for CCCCNc1c(C(=O)OCC)c(C)nc2c1cnn2CC ? 0.998

Could you share which normalized growth value was measured for CC(C)(C)NC[C@H](O)COc1nsnc1N1CCOCC1 ? 0.992

Could you share which normalized growth value was measured for CN1CCC(=C2c3ccccc3CC(=O)c3sccc32)CC1 ? 0.971

Could you share which normalized growth value was measured for OCCN1C[C@@H](O)[C@@H](O)C(O)C1CO (stereo not given in full) ? 1.01

Could you share which normalized growth value was measured for CP(=O)(O)C1=CCNCC1 ? 1

Could you share which normalized growth value was measured for O=c1onc2cnc3ccccc3n12 ? 0.977

Could you share which normalized growth value was measured for CC(Oc1ccccc1)C(=O)N[C@@H]1C(=O)N2[C@@H]1SC(C)(C)[C@@H]2C(=O)O (stereo not given in full) ? 1.02

Could you share which normalized growth value was measured for C[N+](C)(C)CCCCCCCCCC[N+](C)(C)C ? 0.998

Could you share which normalized growth value was measured for CC(C(=O)O)c1cccc(C(=O)c2ccccc2)c1 (stereo not given) ? 0.995

###

assay: chemical genetic growth profiling, strain panel (AID 1159580); details: S. cerevisiae deletion strains, growth OD, locus YOR290C, strain snf2
In all, about 5,500 compounds went through this assay and about 2,000 (36%) were called active. Roughly 18% stayed inconclusive and do not appear here. No stated cut-off is given here; in the data, active means normalized growth mostly below about 0.91 (no sharp cut-off); inconclusive means no clear call, values can overlap the other calls; inactive means mostly above about 0.92. Some of the results follow.
// allowed return values: active, inactive

Hey, what did the test say about NCC1CCC(C(=O)O)CC1 (centres undefined) ? inactive

Hey, what did the test say about CC(=O)OCC(=O)[C@H]1CCC2C3CCC4=CC(=O)CC[C@]4(C)C3CC[C@@]21C (some centres undefined) ? inactive

Hey, what did the test say about CC(N)C(=O)OC(C)(C)Cc1ccc(Cl)cc1 (centres undefined) ? inactive

Hey, what did the test say about N=c1ccn2c(n1)O[C@@H]1C2O[C@H](CO)[C@H]1O (some centres undefined) ? inactive

Hey, what did the test say about CNC(C)[C@H](O)c1ccccc1 (some centres undefined) ? inactive

Hey, what did the test say about CC(NCCc1ccc(O)cc1)C(O)c1ccc(O)cc1 (centres undefined) ? inactive

Hey, what did the test say about COc1cc(NS(=O)(=O)c2ccc(N)cc2)nc(OC)n1 ? inactive

Hey, what did the test say about COc1ccc2c(c1)OCc1c-2oc2cc(OC)ccc12 ? active

Hey, what did the test say about Cc1cc(O)c(C)c(O)c1C(=O)O ? inactive

Hey, what did the test say about C[C@H]1CC2C([C@@H](O)C[C@@]3(C)C2CC[C@]3(O)C(=O)CO)[C@@]2(C)C=CC(=O)C=C12 (some centres undefined) ? inactive

Hey, what did the test say about CC(=O)OCC(=O)[C@@]1(O)CCC2C3CCC4=CC(=O)CC[C@]4(C)C3C(=O)C[C@@]21C (some centres undefined) ? inactive

Hey, what did the test say about CCN(CC)CCNC(=O)c1cc(Br)c(N)cc1OC ? inactive

Hey, what did the test say about CCOC(=O)c1c(C)c(Cl)c(O)c(Cl)c1O ? active

Hey, what did the test say about CCCCCCCCNC(C)C(O)c1ccc(SC(C)C)cc1 (centres undefined) ? active

###

Answer each item with its documented normalized growth.
assay: chemical genetic growth profiling, strain panel (AID 1159580);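 note: tested at 20 µM; growth read once vehicle control cultures reached saturation at 30 °C; 1 = growth at the plate median or of vehicle wells; lower values mean less growth of the strain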; details: S. cerevisiae deletion strains, growth OD, locus YPL055C, strain LGE1, hits give low values
About 2,000 (36%) of roughly 5,500 compounds were called active. Inconclusive results (about 18%) are left out. Some of the results follow.
# answer = number (no unit)

Could you share which normalized growth value was measured for Clc1cccc(Cl)c1CSC1=NCCCN1C1CCCCC1 ? 1.05

Could you share which normalized growth value was measured for CCOC(=O)c1c(C)cc(O)c(C=O)c1O ? 0.171

Could you share which normalized growth value was measured for CSc1nnnn1-c1c(C)cccc1C ? 1.01

Could you share which normalized growth value was measured for CCS(=O)CCSP(=O)(OC)OC (stereo not given) ? 1.01

Could you share which normalized growth value was measured for COc1ccc(C2=C(C(C)=O)C(C)=NC(=S)C2C#N)cc1 (stereo not given) ? 0.97

Could you share which normalized growth value was measured for CN(C)c1ccc(C(=C2C=CC(=[N+](C)C)C=C2)c2ccc(N(C)C)cc2)cc1 ? 0.408

Could you share which normalized growth value was measured for CCOC(=O)c1cc(C)nc(Sc2ccccc2)c1C#N ? 0.844

Could you share which normalized growth value was measured for C[C@]12CC(=O)C3C(CC[C@@H]4C[C@H](O)CC[C@]34C)C1CC[C@]2(O)C(=O)CO (stereo not given in full) ? 1

Could you share which normalized growth value was measured for CC1=C(C(C)O)C2=NC1C=c1[nH]c(c(C)c1C(C)O)=Cc1[nH]c(c(CCC(=O)O)c1C)C=c1[nH]c(c(C)c1CCC(=O)O)=C2 (stereo not given) ? 0.973

Could you share which normalized growth value was measured for COc1ccc(CN2C(=O)CSC2c2ccccn2)cc1 (stereo not given) ? 1

###

assay: chemical genetic growth profiling, strain panel (AID 1159580);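 note: tested at 20 µM; growth read once vehicle control cultures reached saturation at 30 °C; 1 = growth at the plate median or of vehicle wells; lower values mean less growth of the strain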; settings: S. cerevisiae deletion strains, growth OD, locus YDR318W, strain mcm21, hits give low values
In all, about 5,500 compounds went through this assay and about 2,000 (36%) were called active. Inconclusive results (about 18%) are left out. The list shows a part of the results.
property name: normalized growth

Could you share which normalized growth value was measured for c1cncc(C2CCCCN2)c1 (stereo not given) ? 1.01 (inactive)

Could you share which normalized growth value was measured for O=C1C=CC(=C(c2ccc(O)cc2)c2ccc(O)cc2)C=C1 ? 0.982 (inactive)

Could you share which normalized growth value was measured for CC1=C(/C=C/C(C)=C/C=C/C(C)=C/C=C/C=C(C)/C=C/C=C(C)/C=C/C2=C(C)C(=O)C(O)CC2(C)C)C(C)(C)CC(O)C1=O (stereo not given) ? 0.983 (inactive)

Could you share which normalized growth value was measured for CC1=C(/C=C/C(C)=C/C=C/C(C)=C/C=C/C=C(C)/C=C/C=C(C)/C=C/C23OC2(C)CC(O)CC3(C)C)C(C)(C)CC(O)C1 (stereo not given) ? 1.01 (inactive)

Could you share which normalized growth value was measured for COCCc1ccc(OCC(O)CNC(C)C)cc1 (stereo not given) ? 1.02 (inactive)

###

assay: chemical genetic growth profiling, strain panel (AID 1159580);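 note: tested at 20 µM; growth read once vehicle control cultures reached saturation at 30 °C; 1 = growth at the plate median or of vehicle wells; lower values mean less growth of the strain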; settings: S. cerevisiae deletion strains, growth OD, locus YJR066W, strain TOR1
Hit rate of the full screen: of about 5,500 compounds, about 2,000 (36%) were called active. Roughly 18% stayed inconclusive and do not appear here. Cut-off read from the data, not from the text of the source: active = normalized growth mostly below about 0.91 (no sharp cut-off); inconclusive = no clear call, values can overlap the other calls; inactive = mostly above about 0.92. The list shows a part of the results.
// allowed return values: Y = active, N = inactive

Hey, what did the test say about O=C(O)c1cc2ccccc2[nH]1 ? N

Hey, what did the test say about CC(C)(O)[C@@H]1[C@H]2OC(=O)[C@@H]1[C@]1(O)C[C@H]3O[C@]34C(=O)O[C@H]2[C@]14C ? N

Hey, what did the test say about CC(=O)[C@H]1CCC2C3CCC4=CC(=O)CC[C@]4(C)C3CC[C@@]21C (some centres undefined) ? N

Hey, what did the test say about C[C@]12CCC(=O)C=C1CCC1C2CC[C@@]2(C)C1CC[C@@H]2O (some centres undefined) ? N

Hey, what did the test say about CN[C@@H](C)[C@@H](O)c1ccccc1 ? N

Hey, what did the test say about CCCCCCNC(=O)n1cc(F)c(=O)[nH]c1=O ? Y

Hey, what did the test say about COc1cc(NC(=S)N(C)C)c(OC)cc1Cl ? N

Hey, what did the test say about COc1ccc(NNC(=O)c2sc3ccccc3c2Cl)cc1 ? N

Hey, what did the test say about Oc1cc(Cl)ccc1Oc1ccc(Cl)cc1Cl ? Y

Hey, what did the test say about C=C(C)C1CNC(C(=O)O)C1CC(=O)O (centres undefined) ? N

Hey, what did the test say about CCN(CC)CC#CCOC(=O)C(O)(c1ccccc1)C1CCCCC1 (centres undefined) ? N

Hey, what did the test say about CC(=O)O[C@@H]1C[C@@]2(C)C(CC[C@@H]2C(C)=O)C2CCC3=CC(=O)CC[C@]3(C)C21 (some centres undefined) ? N

Hey, what did the test say about COc1ccc2c(c1OC)C(=O)O[C@@H]2[C@H]1c2cc3c(cc2CCN1C)OCO3 ? N

Hey, what did the test say about COC1=C(OC)C(=O)C(C/C=C(\C)CC/C=C(\C)CC/C=C(\C)CC/C=C(/C)CC/C=C(\C)CC/C=C(\C)CC/C=C(\C)CC/C=C(\C)CC/C=C(\C)CCC=C(C)C)=C(C)C1=O ? N

Hey, what did the test say about CN1CCCN=C1COC(=O)C(O)(c1ccccc1)C1CCCCC1 (centres undefined) ? N

Hey, what did the test say about Cc1nnsc1C(=O)NNc1c(Cl)cccc1Cl ? N

Hey, what did the test say about CC(C)(C)CN/C(C#N)=C(/C#N)NCc1cccc(Cl)c1 ? N

Hey, what did the test say about CCC(NC(C)C)C(O)c1ccc(O)c(O)c1 (centres undefined) ? N

Hey, what did the test say about COc1cc2c(cc1OC)C(=O)OC2 ? N

Hey, what did the test say about CC(=O)OC(C)(C)[C@@H]1Cc2cc3ccc(=O)oc3cc2O1 ? N

Hey, what did the test say about NCCSSCCN ? N

Hey, what did the test say about CCOC(=O)C(Cc1ccc(O)cc1)NC(C)=O (centres undefined) ? N

Hey, what did the test say about CN1CCC(=C2c3ccccc3CCc3sccc32)CC1 ? N

Hey, what did the test say about CCOC(=O)CSC(=S)NCc1ccc(C)cc1 ? N

Hey, what did the test say about COc1ccc2c(c1OC)C(=O)O[C@H]2[C@H]1c2cc3c(cc2CCN1C)OCO3 ? N

Hey, what did the test say about OC1(C(F)(F)F)CC(C23CC4CC(CC(C4)C2)C3)=NN1 (centres undefined) ? Y

Hey, what did the test say about CC[N+](C)(CC)CCOC(=O)C(O)(c1ccccc1)C1CCCCC1 (centres undefined) ? N

Hey, what did the test say about CCCCCCCCCCCCCCCC(=O)OC/C=C(C)/C=C/C=C(C)/C=C/C1=C(C)CCCC1(C)C ? N

Hey, what did the test say about Cc1cc(C(=O)NNc2ccc(F)cc2F)no1 ? N

Hey, what did the test say about Nc1nc2ccc(OC(F)(F)F)cc2s1 ? N

Hey, what did the test say about Cc1cc(O)c(C)c(O)c1C(=O)O ? N

Hey, what did the test say about N#Cc1ccc(S(=O)(=O)Nc2ccccc2Oc2ccc(Cl)cc2Cl)cc1 ? N

Hey, what did the test say about CNCCc1ccccn1 ? N

Hey, what did the test say about CC(NCCc1ccc(O)cc1)C(O)c1ccc(O)cc1 (centres undefined) ? N

Hey, what did the test say about CC1/C(=N\O)C[C@@H]2C[C@H]1C2(C)C (some centres undefined) ? N

Hey, what did the test say about CC1=C(CC(=O)O)c2cc(F)ccc2/C1=C\c1ccc(S(C)=O)cc1 (centres undefined) ? N

Hey, what did the test say about Cc1ccc(/C=C2\CSc3ccc(F)cc3C2=O)cc1 ? N

Hey, what did the test say about Cc1[nH]c(C)c(Cl)c(=O)c1Cl ? N

Hey, what did the test say about COc1cc(NC(C)CCCN)c2ncccc2c1 (centres undefined) ? N

The origin of these recorded values is PubChem BioAssay AID1159580.
